ASSAY: Nuclear factor erythroid 2-related factor 2/antioxidant responsive element (Nrf2/ARE) small molecule agonists: luciferase reporter gene qHTS assay in human keratinocytes (AID 1919969); also: % is scaled to controls: 0 for no effect and ±100 for the full control effect; nearly all actives have a fitted effect of over 35% in size
CONDITION INFO: KeratinoSens HaCaT ARE-luciferase, luminescence, 24 h; series mostly up to 92.4 µM
Records with an inconclusive call do not appear. Active and inactive are the calls of the source. Calls follow the shape of the full dose curve.
Returns: one label drawn from active, inactive

Observe how each entry below is paired with its result.
MOLECULE | CLASSIFICATION
CC(C)c1cccc(O)c1 | inactive
C[CH2][Ge]([Cl])([CH2]C)[CH2]C | inactive
O=C(C(=O)c1ccco1)c1ccco1 | inactive
CCc1c(C(=O)O)c(=O)cnn1-c1ccc(Cl)cc1 | inactive
O=C(O)c1ccccc1OP(=O)(O)O | inactive
CCC(C)(C)C | inactive

Query: recorded result category for `NCc1cccc(CN)c1` in this test
inactive

Query: recorded result category for `NC(=O)Cc1cccc2ccccc12` in this test
inactive

Query: recorded result category for `CC(C)(C)C(=O)C1C(=O)c2ccccc2C1=O` in this test
inactive

Query: recorded result category for `CCOC(=O)c1cccc(N)c1` in this test
inactive

Query: recorded result category for `Cc1c(O)cccc1C(=O)N[C@@H](CSc1ccccc1)[C@H](O)CN1C[C@H]2CCCC[C@H]2C[C@H]1C(=O)NC(C)(C)C` in this test
inactive

---

ASSAYED SYSTEM: Gonadotropin-releasing hormone receptor (Homo sapiens) (UniProt P30968)
Sequence (P30968 whole entry, looked up): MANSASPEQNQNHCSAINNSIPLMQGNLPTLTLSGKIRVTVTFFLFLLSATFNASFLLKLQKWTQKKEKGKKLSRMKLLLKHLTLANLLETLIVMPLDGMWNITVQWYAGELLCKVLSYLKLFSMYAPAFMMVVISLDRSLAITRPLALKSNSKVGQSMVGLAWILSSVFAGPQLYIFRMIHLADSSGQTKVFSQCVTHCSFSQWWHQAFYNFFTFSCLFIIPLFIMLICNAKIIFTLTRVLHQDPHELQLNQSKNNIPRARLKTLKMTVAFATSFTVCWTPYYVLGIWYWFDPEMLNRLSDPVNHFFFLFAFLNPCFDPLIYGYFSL
ASSAY: Human gonadotropin-releasing hormone receptor (GnRHR) small molecule agonists, calcium flux assay in GnRHR-HEK293 cells (AID 1920063); also: % is scaled to controls: 0 for no effect and ±100 for the full control effect; nearly all actives have a fitted effect of over 35% in size
CONDITION INFO: calcium flux fluorescence, agonist mode; series mostly up to 57.6 µM
Active and inactive are the calls of the source. The call rests on the fitted dose curve.
ASSAY READOUT: activity change

// worked examples, activity change included
COMPOUND | activity change
O=Cc1ccccc1C=O | inactive
C=C(C)C(=O)OC(C)C | inactive
OCCOCCN1CCN(C2=Nc3ccccc3Sc3ccccc32)CC1 | inactive
CC[C@@H]1C[C@H](N(Cc2cc(C(F)(F)F)cc(C(F)(F)F)c2)C(C)=O)c2cc(C(F)(F)F)ccc2N1C(=O)OC(C)C | inactive
C=CCCC | inactive
COc1nc(N)nc2nc[nH]c12 | inactive
O=C(CCN1CCN(CCO)CC1)N1c2ccccc2Sc2ccc(C(F)(F)F)cc21 | inactive
Cc1ccccc1C | inactive

Report its activity change with Gonadotropin-releasing hormone receptor (Homo sapiens) (UniProt P30968) as the test system: `C=C(C)C(=O)NCCCN(C)C`
inactive

Report its activity change with Gonadotropin-releasing hormone receptor (Homo sapiens) (UniProt P30968) as the test system: `CCCCCCCCSCCO`
inactive

Report its activity change with Gonadotropin-releasing hormone receptor (Homo sapiens) (UniProt P30968) as the test system: `Oc1c(Cl)ccc(Cl)c1Cl`
inactive

---

ASSAY: cAMP Responsive Elements (CRE) small molecule agonists, cell-based qHTS assay (AID 1963590); also: % is scaled to controls: 0 for no effect and ±100 for the full control effect
CONDITION INFO: CRE-bla HEK293T, beta-lactamase FRET ratio, 3 h; series mostly up to 92.4 µM
Text: U.S. Tox21 Program National Center for Advancing Translational Sciences [NCATS] Division of Preclinical Innovation [DPI] U.S. Environmental Protection Agency [EPA] National Institutes of Environmental Health Sciences [NIEHS] National Toxicology Program [NTP] U.S. Food and Drug Administration [FDA] […] The activation of the report gene under culture conditions can be detected by fluorescence intensity. […]
Records with an inconclusive call do not appear. The source made the active and inactive calls. Calls come from the whole dose curve.
ASSAY READOUT: activation

MOLECULE | ASSAY READOUT | REPORTED
C1CCCCC1 | activation | inactive
C=CCCC=C | activation | inactive
CC(=O)Nc1ccc(N=Nc2cc(C)ccc2O)cc1 | activation | inactive
O=S(=O)(O)c1cccc(S(=O)(=O)O)c1 | activation | inactive
NC(=O)c1ccc([N+](=O)[O-])cc1Cl | activation | inactive
FC(F)(F)c1ccccc1Cl | activation | inactive
CCN1CCC[C@H]1CNC(=O)c1c(O)c(Cl)cc(Cl)c1OC | activation | inactive
Cc1cn([C@H]2C[C@H](F)[C@@H](CO)O2)c(=O)[nH]c1=O | activation | inactive

For the molecule `CC1=C(C=O)C(C)(C)CC=C1` , give its reported activation.
inactive

For the molecule `O=C(Cl)c1ccccc1[N+](=O)[O-]` , give its reported activation.
inactive

For the molecule C[C@@H]1NC(=O)[C@@H](N)CNC(=O)[C@H](C2CCNC(N)=N2)NC(=O)/C(=C/NC(N)=O)NC(=O)[C@H](CNC(=O)C[C@@H](N)CCCN)NC1=O (stereo partly drawn) , give its reported activation.
-0.384% [at 0.349 µM] (inactive)

For the molecule COCC(O)CO (stereo not drawn) , give its reported activation.
inactive

For the molecule `CC(C)(C)c1ccc(C(=O)CCCCl)cc1` , give its reported activation.
inactive

---

ASSAYED SYSTEM: 5-hydroxytryptamine receptor 2A (Homo sapiens)
ASSAY: 5-hydroxytryptamine receptor 2A (HTR2A) small molecule antagonists, cell-based qHTS assay (AID 1963586); also: % is scaled to controls: 0 for no effect and ±100 for the full control effect; nearly all actives have a fitted effect of over 45% in size
CONDITION INFO: HTR2A-CHO cells, DOI-induced calcium flux, fluorescence; series mostly up to 61.5 µM
Results filed as inconclusive are left out. The source made the active and inactive calls. The call rests on the fitted dose curve.
ASSAY READOUT: activity, negative = inhibition

// worked examples, activity, negative = inhibition included
MOLECULE | activity, negative = inhibition
CCCCCCCC(OC)OC | inactive
C=C(C)C(=O)OCCNC(C)(C)C | inactive
CC(C)OCCO | inactive
CCO[Si](OCC)(OCC)c1ccccc1 | inactive
O=C(O)c1ccc(C(=O)O)c(C(=O)O)c1 | inactive

For the molecule `O=C(O)CNC(=O)c1ccccc1I` , give its reported activity, negative = inhibition.
inactive

For the molecule `C1CSCCS1` , give its reported activity, negative = inhibition.
inactive

For the molecule `C=CCCCCCCCCCCCCCCCC` , give its reported activity, negative = inhibition.
-3.97% [at 5.62 µM] (inactive)

For the molecule `CCOC(=O)NCCC[Si](OCC)(OCC)OCC` , give its reported activity, negative = inhibition.
inactive

For the molecule `CC(=O)c1ccccc1O` , give its reported activity, negative = inhibition.
inactive

---

ASSAYED SYSTEM: D(2) dopamine receptor (Homo sapiens)
ASSAY: Dopamine D2 receptor (DRD2) small molecule antagonists, cell-based qHTS assay (AID 1963595); also: % is scaled to controls: 0 for no effect and ±100 for the full control effect
CONDITION INFO: HEK293-DRD2 cAMP HTRF antagonist mode; series mostly up to 92.4 µM
Procedure: National Center for Advancing Translational Sciences [NCATS] Division of Preclinical Innovation [DPI] U.S. Environmental Protection Agency [EPA] National Institutes of Environmental Health Sciences [NIEHS] National Toxicology Program [NTP] […] DRD2-Hek293 cells were dispensed at 600 cells/3uL/well in 1536-well white plates using a Multidrop Dispenser. […] The fluorescence intensity in the plates was measured at 340 nm excitation and 665 & 620 nm emission by an Envision plate reader.
Records with an inconclusive call do not appear. Active and inactive are the calls of the source. Calls follow the shape of the dose curve; as a rule, active = well fitted inhibition curve with a large enough effect in the signal ratio in the repeat runs, with a control signal flat; inconclusive = weak or mixed curves, or effect the other way; inactive = flat fitted curve, though single readings scatter; the % refers to the signal ratio.
ASSAY READOUT: activity change, negative = inhibition

// worked examples, activity change, negative = inhibition included
COMPOUND | activity change, negative = inhibition
OC1OC[C@@H](O)[C@H](O)[C@H]1O (some centres undefined) | inactive
Cc1ccc(CO)cc1 | inactive
COC(=O)Cc1cccc2ccccc12 | inactive
Cc1ccc(C(C)(C)C)cc1 | inactive
Oc1cc(O)c2c(c1)O[C@H](c1ccc(O)c(O)c1)[C@H](O)C2 | inactive

For the compound CCC(C)(C)C1CCCCC1OC(C)=O (centres undefined) , give its reported activity change, negative = inhibition.
inactive

For the compound `IC(I)I` , give its reported activity change, negative = inhibition.
inactive

For the compound `CC(=O)OCCC1CCCCC1` , give its reported activity change, negative = inhibition.
inactive

For the compound `CC/C=C\C/C=C\C/C=C\CCCCCCCC(=O)O` , give its reported activity change, negative = inhibition.
inactive

For the compound COC(=O)c1ccc(C)cc1C1=NC(C)(C(C)C)C(=O)N1 (centres undefined) , give its reported activity change, negative = inhibition.
inactive

For the compound CCC(O)CO (centres undefined) , give its reported activity change, negative = inhibition.
inactive

For the compound CC(C)C(=O)Nc1cccc(C2CN3CCSC3=N2)c1 (centres undefined) , give its reported activity change, negative = inhibition.
inactive

For the compound `c1ccc2c(c1)-c1cccc3c1c-2cc1ccccc13` , give its reported activity change, negative = inhibition.
inactive

For the compound `C/C(=C(\CCO)SS/C(CCO)=C(\C)N(C=O)Cc1cnc(C)nc1N)N(C=O)Cc1cnc(C)nc1N` , give its reported activity change, negative = inhibition.
inactive
